Biological target: Meditope enabled Trastuzumab
Sequence (as listed by the source): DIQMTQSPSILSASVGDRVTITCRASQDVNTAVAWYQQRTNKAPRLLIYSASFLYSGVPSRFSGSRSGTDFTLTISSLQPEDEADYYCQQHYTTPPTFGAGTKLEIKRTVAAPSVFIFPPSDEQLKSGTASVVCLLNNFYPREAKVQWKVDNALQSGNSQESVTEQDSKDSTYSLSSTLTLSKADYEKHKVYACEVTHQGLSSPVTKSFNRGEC
Sequence (as listed by the source): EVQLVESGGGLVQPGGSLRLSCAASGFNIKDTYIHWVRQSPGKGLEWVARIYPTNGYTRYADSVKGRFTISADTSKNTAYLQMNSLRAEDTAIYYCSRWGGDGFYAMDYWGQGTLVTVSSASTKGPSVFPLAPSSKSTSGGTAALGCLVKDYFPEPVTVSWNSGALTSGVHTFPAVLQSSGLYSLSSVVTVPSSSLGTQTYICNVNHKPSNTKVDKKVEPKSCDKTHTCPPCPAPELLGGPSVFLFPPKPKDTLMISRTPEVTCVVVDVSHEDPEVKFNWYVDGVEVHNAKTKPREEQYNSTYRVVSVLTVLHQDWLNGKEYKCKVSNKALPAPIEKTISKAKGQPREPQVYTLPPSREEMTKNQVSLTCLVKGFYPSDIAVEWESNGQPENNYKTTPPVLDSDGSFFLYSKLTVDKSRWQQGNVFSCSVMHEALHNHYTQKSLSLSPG
Experiment: BLI binding kinetics of meditope peptides to Meditope enabled Trastuzumab
Details: Conc. 100 nM
Bridge positions count the residues as written; N and C are the ends. Square brackets hold non-standard residues; d marks the D form. Ends that are not written are not given here. azido‑Phe = azido-phenylalanine, photoactivatable residue; Abu(3-Me-diazirin-3-yl) = CC1(CC[C@H](N)C(=O)O)N=N1; Bpa = N[C@@H](Cc1ccc(C(=O)c2ccccc2)cc1)C(=O)O
quantity: pKd
Worth noting: pKd values are minus log10 of concentrations stated in mol/L.

Reported pKd, substance Peptide 10: MMAD conjugated photoactivatable long cQFD azido-Phe 3 (CQ[azido‑Phe]DLSTRRLRCGGGK; disulfide 1-12 (inferred); also: MMAD conjugated) : ____
4.74

Reported pKd, substance Peptide 12: MMAD conjugated photoactivatable long cQFD benzoyl-Phe 3 (CQ[Bpa]DLSTRRLRCGGGK; disulfide 1-12 (inferred); also: MMAD conjugated) : ____
8.91

Reported pKd, substance Peptide 6: MMAD conjugated photoactivatable long cQFD photo-Met 9 (CQFDLSTR[Abu(3-Me-diazirin-3-yl)]LRCGGGK; disulfide 1-12 (inferred); also: MMAD conjugated) : ____
8.60

---

Molecular target: Meditope enabled Trastuzumab
Test: BLI binding kinetics of meditope peptides to Meditope enabled Trastuzumab
Settings: Conc. 200 nM
Bridge positions count the residues as written; N and C are the ends. Square brackets hold non-standard residues; d marks the D form. Ends that are not written are not given here. azido‑Phe = azido-phenylalanine, photoactivatable residue; Abu(3-Me-diazirin-3-yl) = CC1(CC[C@H](N)C(=O)O)N=N1; Bpa = N[C@@H](Cc1ccc(C(=O)c2ccccc2)cc1)C(=O)O
quantity: Kd (nM)
The figure you give is taken to be in nM; do not add the unit.

Reported Kd, substance Peptide 10: MMAD conjugated photoactivatable long cQFD azido-Phe 3 (CQ[azido‑Phe]DLSTRRLRCGGGK; disulfide 1-12 (inferred); also: MMAD conjugated) : ____
30200

Reported Kd, substance Peptide 6: MMAD conjugated photoactivatable long cQFD photo-Met 9 (CQFDLSTR[Abu(3-Me-diazirin-3-yl)]LRCGGGK; disulfide 1-12 (inferred); also: MMAD conjugated) : ____
0.0191

Reported Kd, substance Peptide 12: MMAD conjugated photoactivatable long cQFD benzoyl-Phe 3 (CQ[Bpa]DLSTRRLRCGGGK; disulfide 1-12 (inferred); also: MMAD conjugated) : ____
73.3
